Provenance of the data: ChEMBL document CHEMBL2203168

- experiment: Therapeutic index, ratio of IC50 for L929 cells to EC50 for reversing paclitaxel resistance in human MDA435/LCC6MDR cells
- Assay type: cell-based
- assay setup: L929 cells (IC50) and MDA435/LCC6MDR cells (EC50)
Decide using selectivity ratio alone. Strictly below 80: 1. Equal to or above 80: 0.

Request: hey, is selectivity ratio for O=c1cc(-c2ccc(OCCOCCN(CCOCCOc3ccc(-c4cc(=O)c5ccccc5o4)cc3)Cc3ccccc3F)cc2)oc2ccccc12 lower than 80 or not?
Response: 0

Request: Would you kindly verify if selectivity ratio of O=c1cc(-c2ccc(OCCOCCNCCOCCOc3ccc(-c4cc(=O)c5ccccc5o4)cc3)cc2)oc2ccccc12 is strictly less than 80?
Response: 1

Request: Take the compound O=c1cc(-c2ccc(OCCOCCN(CCCc3ccccc3)CCOCCOc3ccc(-c4cc(=O)c5ccccc5o4)cc3)cc2)oc2ccccc12 and say whether its selectivity ratio is less than 80.
Response: 1

Request: Is selectivity ratio of O=c1cc(-c2ccc(OCCOCCN(CCOCCOc3ccc(-c4cc(=O)c5ccccc5o4)cc3)Cc3ccccc3)cc2)oc2ccccc12 strictly below 80?
Response: 0

Request: selectivity ratio under 80? Item: O=c1cc(-c2ccc(OCCOCCN(CCOCCOc3ccc(-c4cc(=O)c5ccccc5o4)cc3)Cc3ccc(F)cc3)cc2)oc2ccccc12
Response: 1

Request: In plain terms, does O=c1cc(-c2ccc(OCCOCCN(CCOCCOc3ccc(-c4cc(=O)c5ccccc5o4)cc3)Cc3cccc(F)c3)cc2)oc2ccccc12 come in under 80 for selectivity ratio?
Response: 0

Request: # TODO verify selectivity ratio < 80 strictly for this compound: O=c1cc(-c2ccc(OCCOCCN(CCOCCOc3ccc(-c4cc(=O)c5ccccc5o4)cc3)Cc3ccc([N+](=O)[O-])cc3)cc2)oc2ccccc12
Response: 0

Request: For CC(C)(C)OC(=O)N(CCOCCOc1ccc(-c2cc(=O)c3ccccc3o2)cc1)CCOCCOc1ccc(-c2cc(=O)c3ccccc3o2)cc1 , is the recorded selectivity ratio below the cut-off of 80?
Response: 1

Request: # check: selectivity ratio < 80 for O=c1cc(-c2ccc(OCCOCCN(CCOCCOc3ccc(-c4cc(=O)c5ccccc5o4)cc3)Cc3ccc(C(F)(F)F)cc3)cc2)oc2ccccc12
Response: 0

Request: Answer whether the compound CCN(CCOCCOc1ccc(-c2cc(=O)c3ccccc3o2)cc1)CCOCCOc1ccc(-c2cc(=O)c3ccccc3o2)cc1 has selectivity ratio strictly less than 80
Response: 1

----------
- experiment: Reversal of P-gp-mediated paclitaxel-resistance in human LCC6MDR cells after 5 days by MTS assay
- Assay type: cell-based
- assay setup: 120 h
Please provide measured EC50 for the entries that follow.

Request: // lookup EC50 for O=c1cc(-c2ccc(OCCOCCN(CCCc3ccccc3)CCOCCOc3ccc(-c4cc(=O)c5ccccc5o4)cc3)cc2)oc2ccccc12
Response: 250 nM

Request: Recorded EC50 for O=c1cc(-c2ccc(OCCOCCN(CCOCCOc3ccc(-c4cc(=O)c5ccccc5o4)cc3)Cc3ccc([N+](=O)[O-])cc3)cc2)oc2ccccc12 , please?
Response: 189 nM

Request: Tell me the measured EC50 of CC(C)(C)OC(=O)N(CCOCCOc1ccc(-c2cc(=O)c3ccccc3o2)cc1)CCOCCOc1ccc(-c2cc(=O)c3ccccc3o2)cc1 , please.
Response: 320 nM

Request: Bench note: what EC50 did O=c1cc(-c2ccc(OCCOCCN(CCOCCOc3ccc(-c4cc(=O)c5ccccc5o4)cc3)Cc3ccccc3F)cc2)oc2ccccc12 show?
Response: 179 nM

Request: GET /values?readout=EC50&item= CCN(CCOCCOc1ccc(-c2cc(=O)c3ccccc3o2)cc1)CCOCCOc1ccc(-c2cc(=O)c3ccccc3o2)cc1
Response: 200 nM

Request: Need EC50, item O=c1cc(-c2ccc(OCCOCCN(CCOCCOc3ccc(-c4cc(=O)c5ccccc5o4)cc3)Cc3cccc(F)c3)cc2)oc2ccccc12
Response: 258 nM

Request: Need EC50, item O=c1cc(-c2ccc(OCCOCCN(CCOCCOc3ccc(-c4cc(=O)c5ccccc5o4)cc3)Cc3ccc(F)cc3)cc2)oc2ccccc12
Response: 255 nM
